Reference source: paper PMC8041433

This section presents molecules with their documented pIC50 values.
assayedSystem: UniProt:P22303
assayName: cell-based
testContext: potency (IC50), SH-SY5Y spheroids (24 h)
Lab note: report pIC50 as minus log10 of the concentration in molar units, number only.

Qu. State, in one line, measured pIC50 of `CCOP(=O)(OCC)Oc1cc(C)nc(C(C)C)n1`
Ans. 5.64

Qu. State, in one line, measured pIC50 of COP(=S)(Oc1cc(Cl)c(Br)cc1Cl)c1ccccc1 (stereo not shown)
Ans. 4.26

Qu. State, in one line, measured pIC50 of `CNC(=O)Oc1cccc2c1OC(C)(C)C2`
Ans. 6.19

Qu. State, in one line, measured pIC50 of CCOP(=S)(OCC)SC(CCl)N1C(=O)c2ccccc2C1=O (stereo not shown)
Ans. 4.59

* * *

assayedSystem: recombinant human AChE (Homo sapiens, UniProt P22303)
Sequence (P22303 32-614): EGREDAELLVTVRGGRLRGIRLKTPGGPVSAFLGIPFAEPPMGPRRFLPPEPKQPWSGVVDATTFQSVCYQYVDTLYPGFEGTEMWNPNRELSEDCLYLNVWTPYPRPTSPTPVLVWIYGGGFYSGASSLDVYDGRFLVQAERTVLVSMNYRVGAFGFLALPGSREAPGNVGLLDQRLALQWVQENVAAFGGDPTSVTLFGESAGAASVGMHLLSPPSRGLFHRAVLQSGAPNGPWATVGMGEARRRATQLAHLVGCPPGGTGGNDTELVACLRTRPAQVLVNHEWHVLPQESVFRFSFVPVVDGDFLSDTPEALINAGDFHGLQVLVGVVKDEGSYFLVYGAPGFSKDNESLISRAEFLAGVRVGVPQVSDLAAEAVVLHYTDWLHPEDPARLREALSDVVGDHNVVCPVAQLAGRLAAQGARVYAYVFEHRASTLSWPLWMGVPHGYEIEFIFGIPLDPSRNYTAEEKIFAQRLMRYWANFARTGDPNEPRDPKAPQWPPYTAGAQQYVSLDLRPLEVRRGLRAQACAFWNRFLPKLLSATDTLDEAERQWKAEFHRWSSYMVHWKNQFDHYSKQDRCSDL
Counter-ions that a name gives are not always drawn.
Classify by measured Efficacy: True if it is equal to or exceeds -10, False if it is smaller.

Illustrative cases are given below, each with its answer.
CCCN(CCc1cccs1)[C@H]1CCc2c(O)cccc2C1 [Rotigotine] | True
Nc1c(/N=N/c2ccc(-c3ccc(/N=N/c4cc(S(=O)(=O)O)c5ccccc5c4N)cc3)cc2)cc(S(=O)(=O)O)c2ccccc12 [C.I. Direct Red 28] | True
CS/C(C)=N\OC(=O)N(C)SN(C)C(=O)O/N=C(\C)SC [Thiodicarb] | False
CCOP(=S)(OCC)Oc1cc(C)nc(N(CC)CC)n1 [Pirimiphos-ethyl] | False
COc1cc2nc(N3CCN(C(=O)C4CCCO4)CC3)nc(N)c2cc1OC (stereo not drawn) [Terazosin hydrochloride] | True

Qu. Quick check, Efficacy >= -10? CCOP(=S)(OCC)SCSP(=S)(OCC)OCC [Ethion]
Ans. False

Qu. Quick check, Efficacy >= -10? Nc1ccc(N)c(Cl)c1.O=S(=O)(O)O [2-Chloro-1,4-diaminobenzene sulfate]
Ans. False

Qu. Quick check, Efficacy >= -10? CCOP(=O)(OCC)OC(=CCl)c1ccc(Cl)cc1Cl [Chlorfenvinphos]
Ans. False

Qu. Quick check, Efficacy >= -10? CCN1C(=CC=Cc2sc3ccccc3[n+]2CC)Sc2ccccc21.[I-] [3,3'-Diethylthiacarbocyanine iodide]
Ans. True

Qu. Quick check, Efficacy >= -10? C=CC[N+]1([C@H]2C[C@H]3[C@@H]4CC[C@H]5C[C@H](OC(C)=O)[C@@H](N6CCCCC6)C[C@]5(C)[C@H]4CC[C@]3(C)[C@H]2OC(=O)CC)CCCCC1 [Rapacuronium bromide, reference compound]
Ans. True

Qu. Quick check, Efficacy >= -10? Cc1cc(N)c2cc(NC(=O)Nc3ccc4nc(C)cc(N)c4c3)ccc2n1.Cl.Cl [Aminoquinuride dihydrochloride]
Ans. True

Qu. Quick check, Efficacy >= -10? CCOP(=S)(OCC)SC(CCl)N1C(=O)c2ccccc2C1=O (stereo not drawn) [Dialifor]
Ans. False

Qu. Quick check, Efficacy >= -10? CC[C@@H](CO)NC(=O)[C@@H]1C=C2c3cccc4c3c(cn4C)C[C@H]2N(C)C1 [Methysergide]
Ans. False

* * *

assayedSystem: recombinant human AChE (Homo sapiens)
assayName: biochemical
testContext: IC50 (uM)
Structures can show the parent of a compound that is named as a salt.
IC50 strictly under 30 µM means condition met; at 30 µM or over means condition not met.

CCCN(CCc1cccs1)[C@H]1CCc2c(O)cccc2C1 | condition not met
Cc1nc2ccccn2c(=O)c1CCN1CCC(C(=O)c2ccc(F)cc2)CC1 | condition not met
CN1CCc2cc(Cl)c(O)cc2[C@H]2c3ccccc3CC[C@@H]21 [Ecopipam, reference compound] | condition not met
[H]/N=C(\N/C(=N/[H])NCCCCCCNC(=N)NC(=N)Nc1ccc(Cl)cc1)Nc1ccc(Cl)cc1 [Chlorhexidine diacetate, reference compound] | condition not met
Cc1ccc(CCn2c3c(c4cc(Cl)ccc42)CN(C)CC3)cn1 | condition not met
CCOC(=O)C(SP(=S)(OC)OC)c1ccccc1 (stereo not shown) [Phenthoate] | condition not met
[H]/N=C(\N/C(=N/[H])NCCCCCCNC(=N)NC(=N)Nc1ccc(Cl)cc1)Nc1ccc(Cl)cc1 [Chlorhexidine dihydrochloride] | condition met
CC[C@@H](CO)NC(=O)[C@@H]1C=C2c3cccc4c3c(cn4C)C[C@H]2N(C)C1 [Methysergide] | condition met

Qu. For `Nc1c(/N=N/c2ccc(-c3ccc(/N=N/c4cc(S(=O)(=O)O)c5ccccc5c4N)cc3)cc2)cc(S(=O)(=O)O)c2ccccc12` , is the recorded IC50 below the cut-off of 30 µM?
Ans. condition met

Qu. For O=C(Nc1cccc(C2=NCCN2)c1)Nc1cccc(C2=NCCN2)c1 [Imidocarb dipropionate, reference compound] , is the recorded IC50 below the cut-off of 30 µM?
Ans. condition met

Qu. For CCN1CCCC1CNC(=O)c1cc(S(=O)(=O)CC)c(N)cc1OC (stereo not shown) [Amisulpride, reference compound] , is the recorded IC50 below the cut-off of 30 µM?
Ans. condition met

Qu. For `Nc1c(NC/C=C\COc2cc(CN3CCCCC3)ccn2)c(=O)c1=O` , is the recorded IC50 below the cut-off of 30 µM?
Ans. condition met

Qu. For COc1cc2nc(N3CCN(C(=O)C4CCCO4)CC3)nc(N)c2cc1OC (stereo not shown) [Terazosin hydrochloride] , is the recorded IC50 below the cut-off of 30 µM?
Ans. condition not met

Qu. For `O=C(O)CC[N+](=O)[O-]` , is the recorded IC50 below the cut-off of 30 µM?
Ans. condition met

Qu. For `CCSCc1ccccc1OC(=O)NC` , is the recorded IC50 below the cut-off of 30 µM?
Ans. condition met

Qu. For CN1CCCC(n2nc(Cc3ccc(Cl)cc3)c3ccccc3c2=O)CC1 (stereo not shown) [Azelastine hydrochloride] , is the recorded IC50 below the cut-off of 30 µM?
Ans. condition met

Qu. For `CNC(=O)/C=C(\C)OP(=O)(OC)OC` , is the recorded IC50 below the cut-off of 30 µM?
Ans. condition not met
